From: patent US20230159511A1

Collected log10(IC50) values appear next to each entry.
target: human KEAP1 (N-term, residues 321-609) (Homo sapiens); construct: human KEAP1 (N-term, residues 321-609); test: KEAP1 Kelch Fluorescence Polarization (FP) Assay; settings: inhibition of Kelch domain-NRF2 interaction; 2 nM FITC-labelled NRF2 peptide, 25 nM KEAP1, 1 h room temperature; compounds below 10 nM cannot be differentiated
Sequence (Q14145 321-609): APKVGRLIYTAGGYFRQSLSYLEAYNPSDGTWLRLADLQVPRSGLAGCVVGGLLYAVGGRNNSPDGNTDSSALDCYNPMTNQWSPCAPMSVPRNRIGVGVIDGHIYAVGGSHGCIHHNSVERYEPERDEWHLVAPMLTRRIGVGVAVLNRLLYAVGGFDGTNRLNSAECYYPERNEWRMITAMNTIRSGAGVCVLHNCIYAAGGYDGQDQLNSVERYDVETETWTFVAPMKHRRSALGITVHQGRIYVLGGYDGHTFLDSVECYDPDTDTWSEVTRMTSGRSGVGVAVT
Transform log10 | Measure IC50 | Unit nM

// below: answered molecules
smiles-code: CNC(=O)[C@H]1CCCC[C@H]1C(=O)N1CCc2c(Cl)ccc(OCc3nnc(C)n3C)c2[C@H]1CN1CCCC1=O
target-of-assay: human KEAP1 (N-term, residues 321-609) (Homo sapiens)
log10(IC50): 1.15

smiles-code: CNC(=O)[C@H]1CCCC[C@H]1C(=O)N1CCc2cccc(OCCNC(=O)c3noc4ccccc34)c2[C@H]1CN1C(=O)c2ccccc2C1=O
target-of-assay: human KEAP1 (N-term, residues 321-609) (Homo sapiens)
log10(IC50): 1.75

smiles-code: CNC(=O)[C@H]1CCCC[C@H]1C(=O)N1CCc2cccc(O[C@H]3CCN(C(=O)c4cncs4)C3)c2[C@H]1CNC(=O)C1CC1
target-of-assay: human KEAP1 (N-term, residues 321-609) (Homo sapiens)
log10(IC50): 3.91

smiles-code: CNC(=O)[C@H]1CCCC[C@H]1C(=O)N1CCc2c(Cl)ccc(O[C@H]3CCN(C(C)=O)C3)c2[C@H]1CN1C(=O)c2ccccc2C1=O
target-of-assay: human KEAP1 (N-term, residues 321-609) (Homo sapiens)
log10(IC50): 1.64

Find the recorded log10(IC50) belonging to CNC(=O)[C@H]1CCCC[C@H]1C(=O)N1CCc2cccc(O[C@H]3CCN(C(=O)c4cncs4)C3)c2[C@H]1CN1C(=O)c2ccccc2C1=O and report it.
1.45

Find the recorded log10(IC50) belonging to CNC(=O)[C@H]1CCCC[C@H]1C(=O)N1CCc2cccc(OCc3cnco3)c2[C@H]1CN1C(=O)c2ccccc2C1=O and report it.
3.35

Find the recorded log10(IC50) belonging to CNC(=O)N1CCCC[C@H]1C(=O)N1CCc2cccc(O[C@H]3CCN(C(=O)c4cncs4)C3)c2[C@H]1CN1C(=O)c2ccccc2C1=O and report it.
1.63

Find the recorded log10(IC50) belonging to CNC(=O)[C@@]1(C)CCCC[C@H]1C(=O)N1CCc2c(Cl)cc(F)c(OCc3nnn(C)c3C(F)F)c2[C@H]1CN1CCCC1=O and report it.
0.88

Find the recorded log10(IC50) belonging to COCCNC(=O)[C@H]1CCCC[C@H]1C(=O)N1CCc2cccc(O[C@H]3CCN(C(=O)c4cncs4)C3)c2[C@H]1CN1C(=O)c2ccccc2C1=O and report it.
2.33
